// values below are reported inhibition (INH)
# System: DU-145
# experiment.summary: Anticancer activity against human DU145 cells after 72 hrs 25 ug/ml by XTT assay
# Format: functional
measurement.name: inhibition (INH) (%)

C=C(C)c1cc2c(o1)C(=O)c1ccccc1C2=O = 79.79
CC1(C)CCC2=C(O1)c1ccccc1C(=O)C2=O = 100
CC(C)=CCC1=C(O)C(=O)c2ccccc2C1=O = 78.12
COc1cccc2c1C(=O)c1c(O)c3c(c(O)c1C2=O)C[C@@](O)(C(=O)CO)C[C@@H]3O[C@H]1C[C@H](N)[C@H](O)[C@H](C)O1 = 92.13
C=C(C)C1CC2=C(O1)C(=O)c1ccccc1C2=O (stereo not drawn) [DEHYDROISO-ALPHA-LAPACHONE] = 100
CC(=O)O/C=C/C1=C(O)C(=O)c2ccccc2C1=O = 79.17
CC(=O)c1cc2c(o1)C(=O)c1ccccc1C2=O = 69.79
CC(C)(O[N+](=O)[O-])C1CC2=C(O1)C(=O)c1ccccc1C2=O (stereo not given) = 77.08
O=CCC1=C(O)C(=O)c2ccccc2C1=O = 87.5
CC(=O)Oc1c2c(c3ccccc3c1OC(C)=O)OC(C)(C)C=C2 = 100
